molecular target: A139 iCAPS (purified human CB1 with ICL3 native sequence replaced with BRIL, in lipid bilayer) (human) (UniProt P21554); experiment: ELISA, purified IgG on CB1 iCAPS
Sequence (P21554 whole entry): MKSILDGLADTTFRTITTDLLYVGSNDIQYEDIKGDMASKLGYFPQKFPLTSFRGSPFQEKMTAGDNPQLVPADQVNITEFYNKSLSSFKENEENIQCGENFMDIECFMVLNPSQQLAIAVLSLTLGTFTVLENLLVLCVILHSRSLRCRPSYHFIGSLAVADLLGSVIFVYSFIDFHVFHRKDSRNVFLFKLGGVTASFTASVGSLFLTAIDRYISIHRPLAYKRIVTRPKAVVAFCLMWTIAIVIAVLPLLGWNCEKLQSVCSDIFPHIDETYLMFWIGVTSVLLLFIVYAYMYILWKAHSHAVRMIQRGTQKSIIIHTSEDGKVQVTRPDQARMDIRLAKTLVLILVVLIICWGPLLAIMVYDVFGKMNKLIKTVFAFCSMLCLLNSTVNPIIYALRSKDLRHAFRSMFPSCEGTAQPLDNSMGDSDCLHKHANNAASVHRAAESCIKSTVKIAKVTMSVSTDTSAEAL
quantity name: EC50 (nM)

• PA2LR3-P3B10 (chimeric) (antibody, V domains shown) VH: EVQLQQSGAELVRPGSSVKISCKASGYAFSYYWMNWVKQRPGQGLEWIGQIYPGDGDTNYNGKFKGKATLTADKSSSTAYMQLSSLTSEDSAVYFCARSHGNYFPYWGQGTLVTVSA VL: DIVITQSPAIVSASLGERVTMTCTASSSVSSSYLHWYQQKPGSSPKLWIYSTSNLASGVPARFSGSGSGTSYSLTISSMEAEDAATYYCQQWSSYPLTFGAGTKLEIKR = 0.78
• PA2LR3-P2B8 (chimeric) (antibody, V domains shown) VH: EVQLQQSGAELVRPGSSVKISCKASGYAFSYYWMNWVKQRPGQGLEWIGQIYPGDGDTNYNGKFKGKATLTADKSSSTAYMQLSSLTSEDSAVYFCARSHGNYFAYWGQGTLVTVSA VL: DIVMTQSPAIMSASLGERVTMTCTASSSISSSYLHWYQQKPGSSPKLWIYSTSNLASGVPARFSGSGSGTSYSLTISSMEAEDAATYYCHQYHRSPLAFGAGTKLELKR = 1.8
• PA2LR3-P4G10 (chimeric) (antibody, V domains shown) VH: EVQLQQFGAELVRPGSSVKISCKASGYAFSYYWMNWVKQRPGQGLEWIGQIYPGDGDTNYNGKFKGKATLTADKSSSTAYMQLSSLTSEDSAVYFCARSHGNYFAYWGQGTLVTVSA VL: DIVLTQSPAIMSASLGERVTMTCTASSSVSSSYLHWYQQKPGSSPKLWIYSTSNLASGVPARFSGSGSGTSYSLTISSMEAEDAATYYCQQWSSNPLTFGAGTKLELKR = 1.35
